Biological target: Gcr1 (UniProt P07261)
Sequence: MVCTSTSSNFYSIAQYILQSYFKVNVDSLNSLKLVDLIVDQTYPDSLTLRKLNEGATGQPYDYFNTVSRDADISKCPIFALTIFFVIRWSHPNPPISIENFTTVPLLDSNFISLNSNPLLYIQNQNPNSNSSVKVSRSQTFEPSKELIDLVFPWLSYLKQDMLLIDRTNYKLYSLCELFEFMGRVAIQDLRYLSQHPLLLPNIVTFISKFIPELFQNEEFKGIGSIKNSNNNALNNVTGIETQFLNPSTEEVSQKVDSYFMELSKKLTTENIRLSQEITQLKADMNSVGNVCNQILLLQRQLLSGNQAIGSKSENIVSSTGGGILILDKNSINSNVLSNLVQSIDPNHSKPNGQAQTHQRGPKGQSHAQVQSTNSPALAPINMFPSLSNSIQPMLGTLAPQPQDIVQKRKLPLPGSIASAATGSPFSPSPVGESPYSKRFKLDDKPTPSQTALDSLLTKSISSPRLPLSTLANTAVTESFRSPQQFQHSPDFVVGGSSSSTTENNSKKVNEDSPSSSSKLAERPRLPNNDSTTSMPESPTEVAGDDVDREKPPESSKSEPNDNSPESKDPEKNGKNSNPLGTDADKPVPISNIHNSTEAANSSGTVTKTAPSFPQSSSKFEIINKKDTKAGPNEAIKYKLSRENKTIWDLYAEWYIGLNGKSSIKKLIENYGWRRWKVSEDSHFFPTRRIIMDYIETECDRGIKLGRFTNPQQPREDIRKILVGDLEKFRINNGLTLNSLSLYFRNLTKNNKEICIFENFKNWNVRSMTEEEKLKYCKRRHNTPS
Test: PBM E-score (8-mer binding enrichment) (E-score (-0.5 to 0.5)); higher = stronger / more preferred TF binding
Conditions: protein concentration: 100 nM; construct: GST-full length
Whole data set: some 33,000 sequences, median “E-score (-0.5 to 0.5)” near -0.011, cut for the highest 2% near 0.28. For the sample, the highest values were picked, then their nearest neighbours and some sequences at random.
recordedMetric: PBM E-score
Give your answer as a number; write no unit.

// solved cases for PBM E-score follow
> print(dat)
   sequenceinput  valuemeasured
1       AGTAGACT         -0.048
2       GTTCCTTA         0.0517

Query :: Name the recorded PBM E-score for "ACTGGAAT" .
Result :: 0.415

Query :: Check "ACTGGGAT" too.
Result :: 0.0877

Query :: Next entry: "GATTCCAC"
Result :: 0.382

Query :: And for "ACGGGAAT" ?
Result :: 0.111

Query :: Then this sequence: "AGTAGACG"
Result :: 0.302

Query :: Now the same for "CATTCCAC"
Result :: 0.0952

====

Biological target: Gcr1 (UniProt P07261)
Sequence: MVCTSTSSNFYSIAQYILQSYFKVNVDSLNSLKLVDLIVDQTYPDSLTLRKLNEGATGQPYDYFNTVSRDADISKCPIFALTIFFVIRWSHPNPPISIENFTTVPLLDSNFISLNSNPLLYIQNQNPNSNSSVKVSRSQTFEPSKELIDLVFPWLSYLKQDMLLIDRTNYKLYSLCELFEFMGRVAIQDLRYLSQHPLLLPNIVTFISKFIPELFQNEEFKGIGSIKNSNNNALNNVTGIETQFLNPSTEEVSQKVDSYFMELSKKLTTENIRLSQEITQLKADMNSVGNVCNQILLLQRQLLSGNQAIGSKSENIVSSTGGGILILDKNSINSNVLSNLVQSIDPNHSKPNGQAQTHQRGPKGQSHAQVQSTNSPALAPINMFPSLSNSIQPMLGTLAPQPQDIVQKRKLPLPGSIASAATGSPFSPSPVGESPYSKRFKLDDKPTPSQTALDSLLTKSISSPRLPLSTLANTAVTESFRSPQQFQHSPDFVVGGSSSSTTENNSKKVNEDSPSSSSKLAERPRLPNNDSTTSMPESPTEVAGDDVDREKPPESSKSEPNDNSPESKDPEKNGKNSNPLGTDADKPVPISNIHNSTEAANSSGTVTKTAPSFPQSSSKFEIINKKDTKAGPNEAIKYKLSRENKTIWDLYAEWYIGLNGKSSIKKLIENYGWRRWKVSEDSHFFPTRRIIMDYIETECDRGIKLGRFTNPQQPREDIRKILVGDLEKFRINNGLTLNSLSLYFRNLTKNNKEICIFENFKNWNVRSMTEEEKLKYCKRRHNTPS
Experiment: PBM E-score (8-mer binding enrichment) (E-score (-0.5 to 0.5)); higher = stronger / more preferred TF binding
Details: protein concentration: 100 nM; construct: GST-full length
Over roughly 33,000 sequences, “E-score (-0.5 to 0.5)” has its median near -0.011; the highest 2% begin near 0.28. The sample as a whole holds a higher share of the highest values than the screen did.
Everything with PBM E-score lower than 0.09 is not fulfilled; everything else, including exactly 0.09, is fulfilled.

> print(dat)
   sequenceinput  classassignment
1       ATTGGAAC        fulfilled
2       CCCAGAAG        fulfilled
3       GCCAGAAA        fulfilled
4       GGATGGCA    not fulfilled

Query :: Form field: PBM E-score at least 0.09? Entry: "ATAGGAAA"
Result :: not fulfilled

Query :: For "CGTGGAAA" then?
Result :: fulfilled

Query :: Proceed to "ACTACTCC"
Result :: not fulfilled

Query :: Param item: "AAGATCCT"
Result :: fulfilled

Query :: Do the same for "ATTGGAAA" please
Result :: not fulfilled

Query :: Next: "GGATTGAC"
Result :: not fulfilled

Query :: What do we get for "AACTGCCT" ?
Result :: not fulfilled

Query :: And the next one, "CTATAGAC" ?
Result :: not fulfilled

Query :: What do we get for "AGTGGAAG" ?
Result :: fulfilled
